Experiment: Circulating somatostatin levels in plasma at sacrifice, one week after therapy (RIA)
Type: in vivo, Swiss mice
Conditions: Swiss, mouse, plasma, acute (wk 10) infected mice, 1 day SOM treatment, one week post treatment, RIA; untreated 297.3 ± 37.24

structure.string	level at 168 h / ng/mL
C[C@H](N)C(=O)NCC(=O)N[C@H]1CSSC[C@@H](C(=O)O)NC(=O)[C@H](CO)NC(=O)[C@H]([C@@H](C)O)NC(=O)[C@H](Cc2ccccc2)NC(=O)[C@H]([C@@H](C)O)NC(=O)[C@H](CCCCN)NC(=O)[C@H](Cc2c[nH]c3ccccc23)NC(=O)[C@H](Cc2ccccc2)NC(=O)[C@H](Cc2ccccc2)NC(=O)[C@H](CC(N)=O)NC(=O)[C@H](CCCCN)NC1=O	0.24

* * *

Experiment: Circulating somatostatin levels in plasma at sacrifice, one week after therapy (RIA)
Assay type: in vivo, Swiss mice
Settings: Swiss, mouse, plasma, chronic (wk 14) infected mice, 1 day SOM treatment, one week post treatment, RIA; untreated 206.1 ± 13.30

compound	level at 168 h / ng/mL
C[C@H](N)C(=O)NCC(=O)N[C@H]1CSSC[C@@H](C(=O)O)NC(=O)[C@H](CO)NC(=O)[C@H]([C@@H](C)O)NC(=O)[C@H](Cc2ccccc2)NC(=O)[C@H]([C@@H](C)O)NC(=O)[C@H](CCCCN)NC(=O)[C@H](Cc2c[nH]c3ccccc23)NC(=O)[C@H](Cc2ccccc2)NC(=O)[C@H](Cc2ccccc2)NC(=O)[C@H](CC(N)=O)NC(=O)[C@H](CCCCN)NC1=O [somatostatin]	0.226

* * *

Assay: Pharmacokinetic profile of somatostatin in outbred Swiss mice (plasma, RIA)
Assay type: in vivo
Details: Swiss (outbred), ip, 25 ug per mouse, male Swiss mice, 25 μg somatostatin per mouse intraperitoneally, 10 minutes post injection, plasma, read-out: circulating somatostatin level in plasma at 10 minutes post injection (IP)
assay.metric: level at 10 min (ng/mL)

structure.string	assay.metric	unit.tag	numeric.readout
C[C@H](N)C(=O)NCC(=O)N[C@H]1CSSC[C@@H](C(=O)O)NC(=O)[C@H](CO)NC(=O)[C@H]([C@@H](C)O)NC(=O)[C@H](Cc2ccccc2)NC(=O)[C@H]([C@@H](C)O)NC(=O)[C@H](CCCCN)NC(=O)[C@H](Cc2c[nH]c3ccccc23)NC(=O)[C@H](Cc2ccccc2)NC(=O)[C@H](Cc2ccccc2)NC(=O)[C@H](CC(N)=O)NC(=O)[C@H](CCCCN)NC1=O	level at 10 min	ng/mL	30.2

* * *

Assay: Circulating somatostatin levels in plasma at sacrifice, one week after therapy (RIA)
Assay type: in vivo, Swiss mice
Conditions: Swiss, mouse, plasma, chronic (wk 14) infected mice, 2 day SOM treatment, one week post treatment, RIA; untreated 206.1 ± 13.30; p = 0.06 (BL)

structure.string	level at 168 h, ng/mL
C[C@H](N)C(=O)NCC(=O)N[C@H]1CSSC[C@@H](C(=O)O)NC(=O)[C@H](CO)NC(=O)[C@H]([C@@H](C)O)NC(=O)[C@H](Cc2ccccc2)NC(=O)[C@H]([C@@H](C)O)NC(=O)[C@H](CCCCN)NC(=O)[C@H](Cc2c[nH]c3ccccc23)NC(=O)[C@H](Cc2ccccc2)NC(=O)[C@H](Cc2ccccc2)NC(=O)[C@H](CC(N)=O)NC(=O)[C@H](CCCCN)NC1=O	0.248

* * *

Test: Circulating somatostatin levels in plasma at sacrifice, one week after therapy (RIA)
Type: in vivo, Swiss mice
Settings: Swiss, mouse, plasma, uninfected mice, 1 day SOM treatment, Group 2, RIA

compound	level at 168 h / ng/mL
C[C@H](N)C(=O)NCC(=O)N[C@H]1CSSC[C@@H](C(=O)O)NC(=O)[C@H](CO)NC(=O)[C@H]([C@@H](C)O)NC(=O)[C@H](Cc2ccccc2)NC(=O)[C@H]([C@@H](C)O)NC(=O)[C@H](CCCCN)NC(=O)[C@H](Cc2c[nH]c3ccccc23)NC(=O)[C@H](Cc2ccccc2)NC(=O)[C@H](Cc2ccccc2)NC(=O)[C@H](CC(N)=O)NC(=O)[C@H](CCCCN)NC1=O [somatostatin]	0.132

* * *

Experiment: Circulating somatostatin levels in plasma at sacrifice, one week after therapy (RIA)
Type: in vivo, Swiss mice
Conditions: Swiss, mouse, plasma, uninfected mice (17 wks.), 2 day SOM treatment, Group 1, RIA

molecule	unit.tag	level at 168 h
C[C@H](N)C(=O)NCC(=O)N[C@H]1CSSC[C@@H](C(=O)O)NC(=O)[C@H](CO)NC(=O)[C@H]([C@@H](C)O)NC(=O)[C@H](Cc2ccccc2)NC(=O)[C@H]([C@@H](C)O)NC(=O)[C@H](CCCCN)NC(=O)[C@H](Cc2c[nH]c3ccccc23)NC(=O)[C@H](Cc2ccccc2)NC(=O)[C@H](Cc2ccccc2)NC(=O)[C@H](CC(N)=O)NC(=O)[C@H](CCCCN)NC1=O [somatostatin]	ng/mL	0.137
